The origin of these recorded values is patent US20060281807A1.

Tested on: L1210 (murine leukemia)
protocol-summary: Disk diffusion assay, zone of inhibition, L1210
Format: cell-based
test-context: 1 mg/mL, no dilution; 15 μl on disk; 6.5 mm = 200 units
Would you mind telling me the reported zone of inhibition, L1210 of each entry?

Challenge: Please provide the recorded zone of inhibition, L1210 for COC(=O)[C@@]12OC[C@@]34C1[C@@H](OC(=O)C=C(C(C)C)C(C)C)C(=O)O[C@@H]3C[C@H]1C(C)=C(O)C(=O)C[C@]1(C)[C@H]4[C@@H](O)[C@@H]2O (stereo partly drawn) , tested on L1210 (murine leukemia).
Response given: >1000 units

Challenge: Lookup: zone of inhibition, L1210 / L1210 (murine leukemia) / CC[C@@](O)(CC(=O)O[C@@H]1C(=O)O[C@@H]2C[C@@H]3C(C)=CC(=O)[C@H](O)[C@]3(C)[C@H]3[C@]4(O)OC[C@]32[C@@H]1[C@@H](C)[C@H]4O)C(C)C [Peninsularinone, peninsularinone]
Response given: >1000 units

Challenge: Entry COC(=O)[C@@]12OC[C@]34[C@H]([C@@H](O)[C@@H]1O)[C@@]1(C)CC(=O)C(O)=C(C)[C@@H]1C[C@H]3OC(=O)[C@H](OC(=O)/C=C(\C)C(C)C)[C@@H]24 [Bruceantin, bruceantin] , system L1210 (murine leukemia): what zone of inhibition, L1210 was measured?
Response given: >1000 units
